Assay: clinical
Conditions: female, human, plasma, oral, 200 mg
PARAMETER_MEASURED: Cmax (ng/mL)
Could you give me the number in ng/mL? Just the number is fine.

Input line: Endpoint output: Cmax of Nc1nc(=O)n([C@@H]2CS[C@H](CO)O2)cc1F [emtricitabine] . Value?
Output line: 1400

* * *

Experiment: clinical
Settings: female, human, in vivo, 200 mg, t1/2, third trimester (n = 26), geometric least-squares mean (90% CI)
PARAMETER_MEASURED: half-life (h)
Report the value in h with no unit label.

Input line: Please give the measured half-life for this compound: Nc1nc(=O)n([C@@H]2CS[C@H](CO)O2)cc1F [emtricitabine]
Output line: 9.3

* * *

Assay: clinical
Conditions: female, human, in vivo, 200 mg, t1/2, postpartum (n = 22), geometric least-squares mean (90% CI)
PARAMETER_MEASURED: half-life (h)
Numeric only. Scale: h

Input line: Record request: half-life value, item Nc1nc(=O)n([C@@H]2CS[C@H](CO)O2)cc1F
Output line: 10.1

* * *

Experiment: clinical
Settings: female, human, plasma, oral, 200 mg, AUC, postpartum (n = 22), 200 mg once daily, steady state, AUC0-24, noncompartmental, geometric least-squares mean (90% CI)
PARAMETER_MEASURED: AUC (ng·h/mL)
# unit: ng·h/mL | format: bare number

Input line: # AUC lookup, item Nc1nc(=O)n([C@@H]2CS[C@H](CO)O2)cc1F
Output line: 9700

* * *

Assay: clinical
Conditions: female, human, plasma, oral, 200 mg
PARAMETER_MEASURED: tmax (h)
Just the number in h, nothing appended.

Input line: Which tmax value belongs to Nc1nc(=O)n([C@@H]2CS[C@H](CO)O2)cc1F [emtricitabine] ?
Output line: 2

* * *

Experiment: clinical
Conditions: female, human, plasma, oral, 200 mg, AUC, third trimester (n = 26), 200 mg once daily, steady state, AUC0-24, noncompartmental, geometric least-squares mean (90% CI)
PARAMETER_MEASURED: AUC (ng·h/mL)
Kindly answer with a numeric value in ng·h/mL, unit omitted.

Input line: # lookup: AUC of Nc1nc(=O)n([C@@H]2CS[C@H](CO)O2)cc1F
Output line: 8000

* * *

Assay: clinical
Settings: female, human, plasma, oral, 200 mg, C24 (24 hour post dose concentration), third trimester (n = 26), geometric least-squares mean (90% CI)
PARAMETER_MEASURED: concentration at 24 h (µg/mL)
Note: unit µg/mL is implicit; provide only the numeric part.

Input line: Which concentration at 24 h value belongs to Nc1nc(=O)n([C@@H]2CS[C@H](CO)O2)cc1F ?
Output line: 0.058
